Known pIC50 of a selection of molecules
- assayed_system: recombinant alpha-glucosidase I (human full-length glucosidase I, Glu 1) (Homo sapiens)
- Construct: 6-His (C); made in house; host or cells: HEK-293T cells transduced with BacMam virus (virus raised in Sf9)
- Sequence (Q13724 whole entry): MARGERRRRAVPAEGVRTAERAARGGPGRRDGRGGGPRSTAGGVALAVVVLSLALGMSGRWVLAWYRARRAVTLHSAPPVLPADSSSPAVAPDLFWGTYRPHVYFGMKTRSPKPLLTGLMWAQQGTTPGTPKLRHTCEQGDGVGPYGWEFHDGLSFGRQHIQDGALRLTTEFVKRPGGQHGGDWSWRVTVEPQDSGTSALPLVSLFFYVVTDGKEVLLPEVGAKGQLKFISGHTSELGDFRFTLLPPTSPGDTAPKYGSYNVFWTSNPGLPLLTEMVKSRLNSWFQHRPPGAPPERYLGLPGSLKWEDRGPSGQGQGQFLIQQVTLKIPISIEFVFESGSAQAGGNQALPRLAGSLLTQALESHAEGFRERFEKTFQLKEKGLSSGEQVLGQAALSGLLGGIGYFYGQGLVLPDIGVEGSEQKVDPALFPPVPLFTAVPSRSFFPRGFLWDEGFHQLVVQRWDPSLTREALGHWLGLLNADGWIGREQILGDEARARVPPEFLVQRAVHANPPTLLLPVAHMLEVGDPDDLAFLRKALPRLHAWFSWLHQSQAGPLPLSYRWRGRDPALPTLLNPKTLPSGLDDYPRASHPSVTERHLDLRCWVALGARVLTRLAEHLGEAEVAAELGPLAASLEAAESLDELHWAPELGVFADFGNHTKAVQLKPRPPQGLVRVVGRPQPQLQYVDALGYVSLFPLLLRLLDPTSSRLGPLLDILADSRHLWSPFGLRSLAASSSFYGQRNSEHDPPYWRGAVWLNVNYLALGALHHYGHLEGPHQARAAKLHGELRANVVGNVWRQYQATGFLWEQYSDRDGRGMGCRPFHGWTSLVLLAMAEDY
- test_method_notes: Alpha-glucosidase I assay (Amplex Red glucose detection, synthetic trisaccharide substrate)
- Type: biochemical
As a rule, pIC50 stands for the negative log10 of the concentration, concentration in M.

Examples with answers:
- smiles_data: "O=[N+]([O-])c1cc(N2CCOCC2)ccc1NCc1cccc(CN2C[C@H](O)[C@@H](O)[C@H](O)[C@H]2CO)c1"
  assayed_system: "recombinant alpha-glucosidase I (human full-length glucosidase I, Glu 1) (Homo sapiens)"
  pIC50: 7.00
- smiles_data: "COCCc1ccc(CCCCCN2C[C@H](O)[C@@H](O)[C@H](O)[C@H]2CO)cc1"
  assayed_system: "recombinant alpha-glucosidase I (human full-length glucosidase I, Glu 1) (Homo sapiens)"
  pIC50: 5.93
- smiles_data: "[N-]=[N+]=Nc1ccc(NCCc2cncc(CCN3C[C@H](O)[C@@H](O)[C@H](O)[C@H]3CO)n2)c([N+](=O)[O-])c1"
  assayed_system: "recombinant alpha-glucosidase I (human full-length glucosidase I, Glu 1) (Homo sapiens)"
  pIC50: 7.03
- smiles_data: "OC[C@@H]1[C@@H](O)[C@H](O)[C@@H](O)CN1CCc1ccc(CCNc2cc(Cl)cc(-c3ncon3)c2)cc1"
  assayed_system: "recombinant alpha-glucosidase I (human full-length glucosidase I, Glu 1) (Homo sapiens)"
  pIC50: 6.00
- smiles_data: "[N-]=[N+]=Nc1ccc(NCC/C=C/CCN2C[C@H](O)[C@@H](O)[C@H](O)[C@H]2CO)c([N+](=O)[O-])c1"
  assayed_system: "recombinant alpha-glucosidase I (human full-length glucosidase I, Glu 1) (Homo sapiens)"
  pIC50: 6.87

Please examine the following record next.
`Cc1nc2cc(-c3ncccn3)ccc2n1CCCCCCN1C[C@H](O)[C@@H](O)[C@H](O)[C@H]1CO` has a reported pIC50 of 7.11
